Hey, just so you know, these numbers are from PubChem BioAssay (NCI).

- Tested on: M14 melanoma
- assay.overview: NCI tumour cell line growth inhibition, 48 h
value.kind: TGI

// below: answered compounds
                                   compound  value_kind  measured_value
0  COc1cc(/C=C/C(=O)c2cccc3ccccc23)cc(OC)c1OC         TGI         19.1 µM
1              NC(N)=NN=c1c(=O)c2ccccc2c1=O         TGI         3.46 µM

Now consider the entry below.
// assay M14 melanoma, entry `N#CCc1c(F)c(F)c(F)c(F)c1F` , TGI value = > 100 µM

----------
TGI values for the compounds below.
- System: SN12C renal
- assay.overview: NCI tumour cell line growth inhibition, 48 h
Hi! Could you send only the number? It should be in µM, unit omitted.

// below: answered compounds
In [3]: df
Out[3]:
                           smiles_structure  measured_value
0  Cc1ccc2c(c1)[n+](=O)c(C(=O)c1cccs1)c(C(F)(F)F)n2[O-]            1.97
1  O=C(COc1ccc(/C=C2\Oc3ccc4ccccc4c3C2=O)cc1)c1ccc([N+](=O)[O-])cc1            30.7
2  Cc1cc(OCc2nc(N)nc(N)c2-c2ccc(Cl)c(Cl)c2)ccc1[N+](=O)[O-]            25.9

Now consider the entry below.
// assay SN12C renal, entry `C/C(NNC(=O)c1ccccc1O)=C1\C=Nc2ccccc2S1` , TGI value = 55.6
